# Tested on: THP-1
# method.summary: Cytotoxicity against human THP1 cells assessed as cell viability by MTS assay
# Type: cell-based
quantity.measured: pIC50
Scale: pIC50 equals -log10([C]), with [C] in mol/L.

| compound.string | pIC50 |
| --- | --- |
| CCOc1ccc(Nc2c(C)c(N[C@H]3CCCNC3)nc3ccnn23)cc1 | 4.13 |

Now examine the next entry.
Documented pIC50 of Cc1nc2ccc(Nc3c(C)c(N[C@H]4CCCNC4)nc4ccnn34)cc2s1 : 4.27

----------
# assay.target: Rho-associated protein kinase 2 (Homo sapiens, UniProt O75116)
# Sequence (O75116 whole entry): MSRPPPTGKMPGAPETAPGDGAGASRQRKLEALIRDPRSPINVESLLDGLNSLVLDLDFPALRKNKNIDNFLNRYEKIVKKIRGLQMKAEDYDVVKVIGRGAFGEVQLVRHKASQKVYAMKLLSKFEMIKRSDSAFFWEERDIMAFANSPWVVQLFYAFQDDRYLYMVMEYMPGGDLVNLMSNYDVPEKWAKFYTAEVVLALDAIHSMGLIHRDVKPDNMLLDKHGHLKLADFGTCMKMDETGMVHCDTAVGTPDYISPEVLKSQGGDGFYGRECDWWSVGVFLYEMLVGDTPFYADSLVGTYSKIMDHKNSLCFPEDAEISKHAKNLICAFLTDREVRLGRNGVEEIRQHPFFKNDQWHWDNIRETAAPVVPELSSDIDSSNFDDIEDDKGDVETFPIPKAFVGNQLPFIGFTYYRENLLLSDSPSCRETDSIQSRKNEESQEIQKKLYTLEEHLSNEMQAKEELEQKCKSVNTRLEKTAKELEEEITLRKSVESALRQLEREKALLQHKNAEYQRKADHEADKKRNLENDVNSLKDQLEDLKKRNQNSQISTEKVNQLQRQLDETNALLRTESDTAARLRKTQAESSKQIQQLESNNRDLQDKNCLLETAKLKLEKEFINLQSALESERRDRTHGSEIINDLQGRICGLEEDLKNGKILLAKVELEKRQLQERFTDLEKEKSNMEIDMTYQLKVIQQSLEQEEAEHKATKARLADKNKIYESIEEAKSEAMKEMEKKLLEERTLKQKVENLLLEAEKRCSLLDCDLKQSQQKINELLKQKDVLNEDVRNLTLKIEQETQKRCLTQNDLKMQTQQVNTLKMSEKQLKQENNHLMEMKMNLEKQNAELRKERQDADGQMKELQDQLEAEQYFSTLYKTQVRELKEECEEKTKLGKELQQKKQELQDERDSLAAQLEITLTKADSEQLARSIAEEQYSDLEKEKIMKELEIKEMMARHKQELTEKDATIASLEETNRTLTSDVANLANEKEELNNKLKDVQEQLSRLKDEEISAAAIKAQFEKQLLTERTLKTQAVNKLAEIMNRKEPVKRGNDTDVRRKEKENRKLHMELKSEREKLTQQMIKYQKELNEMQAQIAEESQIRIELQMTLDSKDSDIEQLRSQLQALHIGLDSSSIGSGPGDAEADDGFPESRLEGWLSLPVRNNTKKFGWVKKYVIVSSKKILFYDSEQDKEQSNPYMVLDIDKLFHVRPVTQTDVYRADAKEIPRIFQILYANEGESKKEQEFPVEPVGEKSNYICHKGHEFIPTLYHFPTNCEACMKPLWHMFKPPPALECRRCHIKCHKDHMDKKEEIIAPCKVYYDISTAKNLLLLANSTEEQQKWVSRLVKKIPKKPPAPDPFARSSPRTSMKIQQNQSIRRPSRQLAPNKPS
quantity.measured: pIC50
Scale: pIC50 equals -log10([C]), with [C] in mol/L.

Documented pIC50 of N[C@H]1CC[C@H](Nc2cc(Nc3ccc(F)c(Cl)c3)n3nccc3n2)CC1 : 4.85

----------
# assay.target: Mitogen-activated protein kinase 9 (Homo sapiens)
# Sequence (P45984 whole entry): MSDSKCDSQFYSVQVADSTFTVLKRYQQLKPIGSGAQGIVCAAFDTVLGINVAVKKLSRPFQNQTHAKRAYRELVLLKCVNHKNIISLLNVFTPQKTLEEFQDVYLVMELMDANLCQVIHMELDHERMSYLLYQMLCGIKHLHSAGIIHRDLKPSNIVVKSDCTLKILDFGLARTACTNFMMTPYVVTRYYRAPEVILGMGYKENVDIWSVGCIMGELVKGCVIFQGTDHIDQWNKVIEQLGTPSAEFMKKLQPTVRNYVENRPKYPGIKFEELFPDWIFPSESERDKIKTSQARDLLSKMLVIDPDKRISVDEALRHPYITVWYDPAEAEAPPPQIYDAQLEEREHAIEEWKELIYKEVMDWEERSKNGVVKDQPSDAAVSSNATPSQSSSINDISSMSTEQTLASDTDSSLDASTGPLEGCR
# method.summary: Inhibition of JNK2
quantity.measured: IC50

Documented IC50 of N[C@H]1CC[C@H](Nc2cc(Nc3ccc(F)c(Cl)c3)n3nccc3n2)CC1 : 25 µM

----------
# assay.target: MAP kinase-activated protein kinase 2 (Mus musculus, UniProt P49138)
# Sequence (P49138 whole entry): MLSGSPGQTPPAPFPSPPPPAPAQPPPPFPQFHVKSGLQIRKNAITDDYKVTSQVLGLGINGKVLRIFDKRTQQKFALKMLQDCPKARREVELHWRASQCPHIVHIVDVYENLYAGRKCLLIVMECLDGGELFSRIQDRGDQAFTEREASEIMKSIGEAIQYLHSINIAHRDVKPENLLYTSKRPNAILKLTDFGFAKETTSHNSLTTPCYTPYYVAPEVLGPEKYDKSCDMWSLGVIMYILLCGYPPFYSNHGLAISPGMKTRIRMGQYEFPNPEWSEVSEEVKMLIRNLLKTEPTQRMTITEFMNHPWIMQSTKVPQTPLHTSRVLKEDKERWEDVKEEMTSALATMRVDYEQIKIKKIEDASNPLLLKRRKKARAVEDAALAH
# method.summary: Inhibition of MAPKAP-K2 in mouse whole blood assessed as inhibition of LPS-induced TNFalpha production by ELISA
quantity.measured: IC50 (µM)
Give just the number in µM; leave the unit off.

Documented IC50 of CCOc1ccc(Nc2c(C)c(N[C@H]3CCCNC3)nc3ccnn23)cc1 : 5

----------
# assay.target: MAP kinase-activated protein kinase 5 (Homo sapiens, UniProt Q8IW41)
# Sequence (Q8IW41 whole entry): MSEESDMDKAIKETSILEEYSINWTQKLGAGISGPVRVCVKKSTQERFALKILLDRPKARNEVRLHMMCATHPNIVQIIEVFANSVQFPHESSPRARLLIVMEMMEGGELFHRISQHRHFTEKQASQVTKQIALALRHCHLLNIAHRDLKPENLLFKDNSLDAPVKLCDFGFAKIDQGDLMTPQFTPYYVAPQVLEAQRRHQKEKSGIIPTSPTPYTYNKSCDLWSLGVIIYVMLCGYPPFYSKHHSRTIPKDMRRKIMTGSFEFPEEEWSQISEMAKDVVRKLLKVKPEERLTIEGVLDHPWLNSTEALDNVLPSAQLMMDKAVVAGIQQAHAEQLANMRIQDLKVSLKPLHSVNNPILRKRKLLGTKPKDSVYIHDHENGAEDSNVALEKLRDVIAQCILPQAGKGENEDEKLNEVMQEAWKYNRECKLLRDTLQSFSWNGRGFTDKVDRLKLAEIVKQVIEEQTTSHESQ
# method.summary: Inhibition of PRAK
quantity.measured: pIC50
Scale: pIC50 equals -log10([C]), with [C] in mol/L.

Documented pIC50 of N[C@H]1CC[C@H](Nc2cc(Nc3ccc(F)c(Cl)c3)n3nccc3n2)CC1 : 4.96

----------
# method.summary: AUC (0 to 24 hrs) in mouse at 1 mg/kg, po
# Type: ADME, organism-based
# Set-up: time < 24 hr, dose 1 mg/kg, route oral
# cond: plasma
Items are presented alongside their recorded AUC(0-t) at 24 h.
Give just the number in µM·h; leave the unit off.

| compound.string | numeric.readout |
| --- | --- |
| CCOc1ccc(Nc2c(C)c(N[C@H]3CCCNC3)nc3ccnn23)cc1 | 0.438 |
| Cc1nc2ccc(Nc3c(C)c(N[C@H]4CCCNC4)nc4ccnn34)cc2s1 | 0.579 |

Now examine the next entry.
Documented AUC(0-t) at 24 h of COCCOc1ccc(Nc2c(C)c(N[C@H]3CCCNC3)nc3ccnn23)cc1 : 0.316

----------
# method.summary: Intrinsic clearance in mouse liver microsomes
# Assay type: ADME, Microsome
# cond: read-out: CLH
Items are presented alongside their recorded microsomal CLint.
Mention the unit after the number when you answer.

| compound.string | microsomal CLint |
| --- | --- |
| CCOc1ccc(Nc2c(C)c(N[C@H]3CCCNC3)nc3ccnn23)cc1 | 11 µL/min/mg |

Now examine the next entry.
Documented microsomal CLint of N[C@H]1CC[C@H](Nc2cc(Nc3ccc(F)c(Cl)c3)n3nccc3n2)CC1 : 59 µL/min/mg

----------
Items are presented alongside their recorded pIC50.
# assay.target: MAP kinase-activated protein kinase 2 (Homo sapiens, UniProt P49137)
# Sequence (P49137 whole entry): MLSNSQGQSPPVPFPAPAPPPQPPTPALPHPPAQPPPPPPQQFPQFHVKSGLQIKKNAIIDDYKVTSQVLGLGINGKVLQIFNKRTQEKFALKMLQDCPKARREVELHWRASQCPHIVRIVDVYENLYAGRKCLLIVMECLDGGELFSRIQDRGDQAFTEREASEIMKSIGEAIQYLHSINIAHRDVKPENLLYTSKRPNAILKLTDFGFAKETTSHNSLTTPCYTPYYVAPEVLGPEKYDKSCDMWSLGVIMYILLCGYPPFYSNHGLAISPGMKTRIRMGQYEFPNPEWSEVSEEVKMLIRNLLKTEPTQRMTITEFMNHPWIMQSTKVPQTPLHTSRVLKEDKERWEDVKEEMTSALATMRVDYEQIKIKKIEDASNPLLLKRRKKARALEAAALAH
# method.summary: Inhibition of MAPKAP-K2 using KKLNRTLSVA as substrate and [33P]-gamma-ATP after 30 mins by liquid scintillation counter
Scale: pIC50 equals -log10([C]), with [C] in mol/L.

| compound.string | numeric.readout |
| --- | --- |
| CCOc1cccc(Nc2c(C)c(N[C@H]3CC[C@H](N)CC3)nc3ccnn23)c1 | 5.85 |

Reading of pIC50 for Cc1c(N[C@H]2CCCNC2)nc2ccnn2c1Nc1ccc(C(=O)NC2CCCC2)cc1 with MAP kinase-activated protein kinase 2 (Homo sapiens, UniProt P49137): 6.85

Reading of pIC50 for CCc1c(N[C@H]2CC[C@H](N)CC2)nc2ccnn2c1Nc1ccc(F)c(Cl)c1 with MAP kinase-activated protein kinase 2 (Homo sapiens, UniProt P49137): 6.40

Reading of pIC50 for CCOc1ccc(Nc2c(C)c(N[C@H]3CC[C@H](O)CC3)nc3ccnn23)cc1 with MAP kinase-activated protein kinase 2 (Homo sapiens, UniProt P49137): 4.05

----------
# assay.target: Mitogen-activated protein kinase 14 (Homo sapiens, UniProt Q16539)
# Sequence (Q16539 whole entry): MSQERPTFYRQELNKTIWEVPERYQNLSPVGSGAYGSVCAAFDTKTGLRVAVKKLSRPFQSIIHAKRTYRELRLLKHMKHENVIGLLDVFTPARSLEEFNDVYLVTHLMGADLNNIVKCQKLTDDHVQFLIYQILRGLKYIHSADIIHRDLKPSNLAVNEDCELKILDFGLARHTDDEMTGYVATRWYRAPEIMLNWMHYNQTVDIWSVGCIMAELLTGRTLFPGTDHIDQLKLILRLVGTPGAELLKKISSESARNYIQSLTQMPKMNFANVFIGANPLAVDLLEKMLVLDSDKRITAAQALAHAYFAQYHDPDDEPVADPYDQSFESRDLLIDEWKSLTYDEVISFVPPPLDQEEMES
# method.summary: Inhibition of P38alpha
pIC50: −log10 of the molar value.
quantity.measured: pIC50

Documented pIC50 of N[C@H]1CC[C@H](Nc2cc(Nc3ccc(F)c(Cl)c3)n3nccc3n2)CC1 : < 4.00

----------
# assay.target: UniProtKB P24941
quantity.measured: IC50 (µM)
Give just the number in µM; leave the unit off.

| molecule | IC50, µM |
| --- | --- |
| N[C@H]1CC[C@H](Nc2cc(Nc3ccc(F)c(Cl)c3)n3ncc(Cl)c3n2)CC1 | 0.003 |

Now examine the next entry.
Reading of IC50 for N[C@H]1CC[C@H](Nc2cc(Nc3ccc(F)c(Cl)c3)n3ncc(Br)c3n2)CC1 with UniProtKB P24941: 0.0034

----------
Items are presented alongside their recorded microsomal CLint.
# method.summary: Intrinsic clearance in human liver microsomes
# Format: ADME, Microsome
# cond: read-out: CLH

| compound.string | microsomal CLint |
| --- | --- |
| N[C@H]1CC[C@H](Nc2cc(Nc3ccc(F)c(Cl)c3)n3nccc3n2)CC1 | < 10 µL/min/mg |

Now examine the next entry.
Documented microsomal CLint of CCOc1ccc(Nc2c(C)c(N[C@H]3CCCNC3)nc3ccnn23)cc1 : < 10 µL/min/mg

----------
# Test system: Serum
# method.summary: Drug level in C57BL/6 mouse serum at 10 mg/kg, po
# Type: ADME, organism-based
# Parameters: dose 10 mg/kg, route oral
# cond: in vivo, read-out: Drug uptake
quantity.measured: concentration

Documented concentration of CCOc1ccc(Nc2c(C)c(N[C@H]3CCCNC3)nc3ccnn23)cc1 : 2000 nM

----------
Items are presented alongside their recorded IC50.
# assay.target: MAP kinase-activated protein kinase 2 (Homo sapiens)
# method.summary: Inhibition of MAPKAP-K2 using KKLNRTLSVA as substrate and [33P]-gamma-ATP after 30 mins by liquid scintillation counter
Give just the number in nM; leave the unit off.

| compound.string | IC50 [nM] |
| --- | --- |
| CCOc1ccc(Nc2c(C)c(NCCN)nc3ccnn23)cc1 | 2500 |

Now examine the next entry.
Documented IC50 of CCOC(=O)c1cccc(Nc2c(C)c(N[C@H]3CC[C@H](N)CC3)nc3ccnn23)c1 : 1900

----------
# method.summary: Apparent permeability across apical to basolateral side in human Caco2 cells
# Assay type: ADME, cell-based
# cond: Caco-2
Items are presented alongside their recorded Papp A→B.
Mention the unit after the number when you answer.

| compound.string | Papp A→B |
| --- | --- |
| CCOc1ccc(Nc2c(C)c(N[C@H]3CCCNC3)nc3ccnn23)cc1 | 28.3 ×10⁻⁶ cm/s |

Now examine the next entry.
Documented Papp A→B of N[C@H]1CC[C@H](Nc2cc(Nc3ccc(F)c(Cl)c3)n3nccc3n2)CC1 : 7.1 ×10⁻⁶ cm/s

----------
# assay.target: MAP kinase-activated protein kinase 2 (Homo sapiens, UniProt P49137)
# method.summary: Competitive inhibition of MAPKAP-K2 using KKLNRTLSVA as substrate and [33P]-gamma-ATP by Lineweaver-Burke plot analysis
quantity.measured: Ki
Mention the unit after the number when you answer.

Documented Ki of N[C@H]1CC[C@H](Nc2cc(Nc3ccc(F)c(Cl)c3)n3nccc3n2)CC1 : 6 µM

----------
Items are presented alongside their recorded IC50.
# assay.target: MAP kinase-activated protein kinase 2 (Homo sapiens, UniProt P49137)
# method.summary: Inhibition of MAPKAP-K2 using KKLNRTLSVA as substrate and [33P]-gamma-ATP after 30 mins by liquid scintillation counter
Give just the number in nM; leave the unit off.

| compound | quantity.measured | numeric.readout |
| --- | --- | --- |
| CCc1c(NC2CCCNC2)nc2ccnn2c1Nc1ccc(F)c(Cl)c1 (racemic) | IC50 | 700 |
| Fc1ccc(Nc2cc(NC3CCCNC3)nc3ccnn23)cc1Cl (racemic) | IC50 | 400 |
| CCOc1ccc(Nc2c(C)c(N[C@H]3CC[C@H](N)CC3)nc3ccnn23)cc1 | IC50 | 360 |
| COCCOc1ccc(Nc2c(C)c(N[C@H]3CCCNC3)nc3ccnn23)cc1 | IC50 | 130 |
| N[C@H]1CC[C@H](Nc2cc(Nc3ccc(F)c(Cl)c3)n3ncc(Br)c3n2)CC1 | IC50 | 9200 |
| N[C@H]1CC[C@H](Nc2cc(Nc3ccc(F)c(Cl)c3)n3nccc3n2)CC1 | IC50 | 1300 |
| CCN[C@H]1CC[C@H](Nc2cc(Nc3ccc(F)c(Cl)c3)n3nccc3n2)CC1 | IC50 | 2000 |
| N[C@H]1CC[C@H](Nc2nc3ccnn3c(Nc3ccc(F)c(Cl)c3)c2-c2ccccc2)CC1 | IC50 | 1600 |
| CCCc1c(N[C@H]2CC[C@H](N)CC2)nc2ccnn2c1Nc1ccc(F)c(Cl)c1 | IC50 | 600 |
| Cc1c(N[C@H]2CCCNC2)nc2ccnn2c1Nc1ccc(OCCN2CCOCC2)cc1 | IC50 | 160 |

Documented IC50 of Cc1c(N[C@H]2CC[C@H](N)CC2)nc2ccnn2c1Nc1cccc(OCc2ccccc2)c1 : 3000

Documented IC50 of Cc1nc2ccc(Nc3c(C)c(N[C@H]4CCCNC4)nc4ccnn34)cc2s1 : 54
